- STUDY TARGET: Grb2 SH2 (UniProt P62993)
- Sequence (P62993 whole entry, looked up): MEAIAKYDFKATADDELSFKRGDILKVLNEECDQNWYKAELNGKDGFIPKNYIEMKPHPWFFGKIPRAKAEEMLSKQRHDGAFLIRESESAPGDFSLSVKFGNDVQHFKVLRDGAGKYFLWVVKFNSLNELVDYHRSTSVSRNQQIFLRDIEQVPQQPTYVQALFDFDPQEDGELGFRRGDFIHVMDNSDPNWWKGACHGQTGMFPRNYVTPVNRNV
- MEASUREMENT NOTES: SH2 binding enrichment of the phosphorylated peptide, bacterial display (enrichment ratio); higher = better substrate or ligand; peptides without Tyr show the background
METRIC NAME: SH2 binding enrichment
Please give only the number in your answer, with no unit.

The recorded SH2 binding enrichment for entry SILAVYSKDIY [PANK2_Y400_N404I] equals 0.897

For this sequence ( ISSLLYELLEE [TRPC6_Y896_R895L] ), measured SH2 binding enrichment is 1.04

The sequence listed as CLAKMYFSAVE [CP_Y539_D544E_YF] shows SH2 binding enrichment equal to 1.09

Input KIEGIYARDET [RPL35A_Y34_V33I] . Output SH2 binding enrichment: 0.883

The recorded SH2 binding enrichment for LRFDSYSSFCN [SLC20A2_Y433_YF] is 0.805

What the record says about TLEKYYFAFPG [SLC1A1_Y51_F50Y] : SH2 binding enrichment is 1.06

Per the records, this sequence ( HQKKPYCHTHN [NRAP_Y53_A56T] ) has SH2 binding enrichment equal to 1.45

Notebook: FSPPFYHRNCM [HGD_Y334_R330S_YF] , SH2 binding enrichment read as 0.981

In plain terms, YEEDSYSHIMA [FDPS_Y388] has a documented SH2 binding enrichment of 0.733

Record summary for QKLPSYILENN [VPS13B_Y2774] : reported SH2 binding enrichment = 0.755

Please fill in: SH2 binding enrichment reported for AGTIPYHAHLD [ASS1_Y291_L290P] = 0.838

Noted for GGYNNYGYGSD [HNRNPH3_Y159_N163S] : its SH2 binding enrichment reads 0.808

Memo: PSAVAYPKRSQ [MARK3_Y432_V429A] , reported SH2 binding enrichment: 1.06

Lab note: measured SH2 binding enrichment of EKESCYILHSS [PATJ_Y783_E779K] was 0.959

Reported SH2 binding enrichment for SEDSEYYRAFE [CASQ2_Y178_K180R] was 0.901

Just so you know, measured SH2 binding enrichment for QKFMAYLSQGW [HLCS_Y236_G241W] came out at 0.917

Just so you know, measured SH2 binding enrichment for ASTHIYQIMNH [ITK_Y588_V587I] came out at 0.923

Summary for this sequence, AGHEEYSAMRD [KRAS_Y64_Q61H] : SH2 binding enrichment is 0.777

Recorded result, FHLLPYTVRAM [PARS2_Y93_YF] , SH2 binding enrichment: 1.11

Input RAHARYCADAC [ACOT4_Y52_R57C] . Output SH2 binding enrichment: 0.915

Item: CNPLCYPTIMI [OR6K6_Y160_R159C] | SH2 binding enrichment: 0.622

So, TPIFPYLLPKS [PLD2_Y580_T577I_YF] ? Its SH2 binding enrichment was 0.877

Memo: LAEMNYVHRDL [EPHB1_Y740] , reported SH2 binding enrichment: 0.882

SH2 binding enrichment in this record for VVVTKYCKEEL [ATP7B_Y1078_A1074V] : 0.637

Entry DLLMQHPKAQG [FAM83C_Y600_Y600H] ; SH2 binding enrichment = 0.996

So, NPQKSYFIRLY [WAS_Y83] ? Its SH2 binding enrichment was 1.06

The recorded SH2 binding enrichment for NTADFYDLFGG [PTPN11_Y63_G60A_YF] is 0.847

For record EDSEFYRAFEE [CASQ2_Y179_K180R_YF] the listed SH2 binding enrichment is 0.963

* * *

- Tested on: Fer (mouse);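 also: 11-residue human phosphosite peptides and single-mutation variants displayed on the E. coli surface, counted by deep sequencing, each peptide's frequency after selection divided by its frequency in the unselected input library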;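 also: frequency after pTyr selection over input frequency; kinase dosed for 20-30% of maximal phosphorylation in three min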
- MEASUREMENT NOTES: phosphorylation enrichment, bacterial display (enrichment ratio); higher = better substrate or ligand; peptides without Tyr show the background
Could you label it met if measured phosphorylation enrichment is 0.8 or higher, and not met otherwise?

INPUT: phosphorylation enrichment >= 0.8 for KKHIPCREHKS [CSNK1G2_Y206_Y206C] ?
OUTPUT: met

INPUT: // inclusive: phosphorylation enrichment at least 0.8? input: RREWYYEVIIV [BACE1_Y260]
OUTPUT: met

INPUT: Could you please find out whether SEDANYMRVSC [TTC3_Y1288_K1289M] has phosphorylation enrichment that meets 0.8 or exceeds it?
OUTPUT: not met

INPUT: # check: phosphorylation enrichment of KLQQWYREPRS [GPI_Y17_H20P] is greater than or equal to 0.8
OUTPUT: not met

INPUT: hey, is phosphorylation enrichment for this one >= 0.8? YIPSNYVAEDR [FRK_Y104]
OUTPUT: not met

INPUT: Does the sequence YSIDHYLGKEM [G6PD_Y202_R198S] have recorded phosphorylation enrichment that is 0.8 or more?
OUTPUT: not met

INPUT: # bool: phosphorylation enrichment of KTDKKYLMIEE [BAG3_Y451] >= 0.8
OUTPUT: not met

INPUT: Tell me whether phosphorylation enrichment is at least 0.8 here: YGSSSYRGAGG [RPA2_Y14_G15R]
OUTPUT: not met

INPUT: Hello, I need to know if TEQMAYCPIQC [SHC4_Y403] has measured phosphorylation enrichment not below 0.8. Thanks!
OUTPUT: met

INPUT: Assess whether reported phosphorylation enrichment for CQLENYCNGGG [INS_Y108_Y103C] sits at 0.8 or higher.
OUTPUT: not met

INPUT: Hello, I need to know if KDAGDYKYKAK [LRIT3_Y326_C328Y] has measured phosphorylation enrichment not below 0.8. Thanks!
OUTPUT: not met

INPUT: phosphorylation enrichment >= 0.8 for PNRILYGDFRQ [MYH6_Y717] ?
OUTPUT: not met

INPUT: Tell me whether phosphorylation enrichment is at least 0.8 here: PDGHEYIYVDP [PDGFRA_Y572]
OUTPUT: met

INPUT: Evaluate VVEVTYDDVPI [FLNB_Y1308] : phosphorylation enrichment at minimum 0.8?
OUTPUT: met

INPUT: Determine whether measured phosphorylation enrichment meets or exceeds 0.8 for AAGGRYDGLLG [HARS2_Y364_V368L]
OUTPUT: not met

INPUT: # check: phosphorylation enrichment of IYQASYYRRGD [LTK_Y676_R673Q] is greater than or equal to 0.8
OUTPUT: met

INPUT: Item HGQVNYEEFVQ [CALM2_Y139_D134H] with phosphorylation enrichment of 0.8 or above?
OUTPUT: met

INPUT: Is phosphorylation enrichment at least 0.8? Consider LRRFIYRPPDR [OTOF_Y1231]
OUTPUT: not met

INPUT: Is phosphorylation enrichment at least 0.8? Consider LWEGSYGKVKE [STK11_Y60_G56W]
OUTPUT: not met

INPUT: Confirm if phosphorylation enrichment reported for the sequence PAVGIYNDNIN [CDCP1_Y707] is 0.8 or above.
OUTPUT: not met

INPUT: Evaluate GFAGKYIAMVM [CYP19A1_Y441_C437Y_YF] : phosphorylation enrichment at minimum 0.8?
OUTPUT: not met

INPUT: Quick check, phosphorylation enrichment >= 0.8? QADVVYVNTQL [MERTK_Y872_I871V]
OUTPUT: met

INPUT: Could you tell me if the measured phosphorylation enrichment of LFSDHYSPSGR [TMPRSS12_Y23_YF] reaches 0.8 or more?
OUTPUT: not met

INPUT: Does phosphorylation enrichment meet or surpass 0.8 for ENGPFYTSFPP [GDAP2_Y488_YF] ?
OUTPUT: met

INPUT: Is it the case that RKLVDYDSAQH [BIN1_Y150_R154Q] has phosphorylation enrichment reaching or exceeding 0.8?
OUTPUT: not met

INPUT: Determine whether this sequence has phosphorylation enrichment no lower than 0.8: CTTIHYNYKCN [TP53_Y234_M237K]
OUTPUT: not met

INPUT: Is the recorded value of phosphorylation enrichment equal to or greater than 0.8 for this sequence? TINPIHEHVGF [CHN1_Y143_Y143H_YF]
OUTPUT: not met

INPUT: I'd appreciate it if you could say whether LLINKYGLSDH [SCP2_Y151_A155D] has phosphorylation enrichment at least equal to 0.8.
OUTPUT: not met

INPUT: Decide: is the reported value of phosphorylation enrichment for LASLIYNFVLF [AQP6_Y231] equal to or greater than 0.8?
OUTPUT: met

INPUT: Confirm if phosphorylation enrichment reported for the sequence HLLRIYFDITD [MMP27_Y307_W304L_YF] is 0.8 or above.
OUTPUT: met

INPUT: Can AGHEEYSAMRD [KRAS_Y64_Q61H] be said to have phosphorylation enrichment at or above 0.8?
OUTPUT: not met

INPUT: Reported phosphorylation enrichment at or above 0.8? ISSLLYELLEE [TRPC6_Y896_R895L]
OUTPUT: met

INPUT: Hi team, for FRSSLYSLMET [MYO5C_Y633_L634S] , is the recorded phosphorylation enrichment at or above 0.8?
OUTPUT: met

INPUT: Identify whether the reported phosphorylation enrichment of the following sequence is 0.8 or greater: IRFPPYTDWNQ [ALDH3B2_Y365_H361R_YF]
OUTPUT: not met

INPUT: Please check the record LNPLIYTLRNA [OR4C46_Y285_K288R] and state if its phosphorylation enrichment is at or above 0.8.
OUTPUT: met

INPUT: # bool: phosphorylation enrichment of KPGLKYVTFGN [GALNTL5_Y404_YF] >= 0.8
OUTPUT: not met

Values were extracted from the supplement of paper PMC10065799.
